Target: CCK B (Mus musculus, UniProt P56481)
Sequence (P56481 1-453): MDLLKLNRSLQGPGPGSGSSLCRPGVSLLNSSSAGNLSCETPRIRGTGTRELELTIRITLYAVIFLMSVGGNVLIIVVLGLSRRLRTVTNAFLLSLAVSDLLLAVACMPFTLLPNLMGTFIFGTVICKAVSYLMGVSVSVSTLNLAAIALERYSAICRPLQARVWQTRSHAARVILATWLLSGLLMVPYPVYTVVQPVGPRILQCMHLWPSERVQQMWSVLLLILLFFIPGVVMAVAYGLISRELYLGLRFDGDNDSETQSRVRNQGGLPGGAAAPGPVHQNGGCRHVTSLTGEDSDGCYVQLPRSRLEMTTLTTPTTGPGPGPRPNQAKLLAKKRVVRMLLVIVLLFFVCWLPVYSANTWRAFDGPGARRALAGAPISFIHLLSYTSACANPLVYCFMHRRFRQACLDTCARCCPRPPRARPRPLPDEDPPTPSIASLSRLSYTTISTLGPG
Answer each item with its documented pKi.
Answers are plain numbers, as −log10 of the molar value.

C[C@](Cc1c[nH]c2ccccc12)(NC(=O)OC1C2CC3CC(C2)CC1C3)C(=O)N1CCc2ccccc2C1 (some centres unmarked) :: 6.35

Quick request: pKi for each listed item, please.
1. CC(Cc1c[nH]c2ccccc12)(NC(=O)OC1C2CC3CC(C2)CC1C3)C(=O)NC1CCc2ccccc2C1 (racemic)
2. CC1(C)[C@H]2CC[C@]1(C)[C@H](OC(=O)N[C@](C)(Cc1c[nH]c3ccccc13)C(=O)N[C@@H]1Cc3ccccc3[C@H]1O)C2
3. CC(Cc1c[nH]c2ccccc12)(NC(=O)OC1C2CC3CC(C2)CC1C3)C(=O)NC1CCCc2ccccc21 (racemic)

OUT:
1. 6.48
2. 7.52
3. 7.35

IN: Value lookup for pKi; key = `CC1(C)[C@H]2CC[C@]1(C)[C@H](OC(=O)N[C@](C)(Cc1c[nH]c3ccccc13)C(=O)N[C@H]1Cc3ccccc3[C@@H]1O)C2`
OUT: 6.95

###

molecular target: CCK A; test: CCK receptor binding (CCK A); conditions: assay not described
Measured attribute: Ki (µM)
Numbers only, in µM.

Solved entries:
CC1(C)[C@H]2CC[C@]1(C)[C@H](OC(=O)N[C@](C)(Cc1c[nH]c3ccccc13)C(=O)N[C@@H]1Cc3ccccc3[C@H]1O)C2 :: 3.87
CC1(C)[C@H]2CC[C@]1(C)[C@H](OC(=O)N[C@](C)(Cc1c[nH]c3ccccc13)C(=O)N[C@H]1Cc3ccccc3[C@@H]1O)C2 :: 5.3
CC(Cc1c[nH]c2ccccc12)(NC(=O)OC1C2CC3CC(C2)CC1C3)C(=O)NC1CCCc2ccccc21 (racemic) :: 5.22

IN: Notebook entry, CCK A assay: Ki of CC1(C)[C@H]2CC[C@]1(C)[C@H](OC(=O)N[C@](C)(Cc1c[nH]c3ccccc13)C(=O)NC1CCc3ccccc3C1=O)C2 (single isomer, unassigned) = ?
OUT: 7.62
